- Tested on: MS2 coat protein
- Protocol Text: apparent KD of MS2 coat protein; designed switch direction (-1 OFF switch, 1 ON switch): 1; higher = weaker reporter binding
- Condition Info: input ligand: none
Assay Endpoint: apparent KD of MS2 coat protein (nM)
Kindly provide the numeric value in nM only, without the unit symbol.

GGCGUAUAAACAUGAGGAUCACCCAUGUAGCGGAGACGCAAUGAGGAUAUCGAUGGGUUUCCCGUCGAGAAGGCGUGGGUCGCC [JL SSNG3 3.94] (Eterna round: R96, puzzle: Same State NG 3)
29
CCGGGUAAUGGAGGAUAUGGAGCCUUAUUGGCUCCAGAAGGUCAAUAACAUGAGGAUCACCCAUGUCCGGCGGUCAAUAGACCG [Eli NG1ss - 68] (Eterna round: R96, puzzle: Same State NG 1)
775

Turning now to a further sequence:
apparent KD of MS2 coat protein reported for this sequence GUGGUCAGACAUGAGGAUCACCCAUGUGGAAUAAAUAACGGUGAGGAUAUCGAAUAUAGGAUAUACGAGAAGGCAUGAUUGGUG (Eterna round: R96, puzzle: Same State NG 3) : 124

###

// apparent KD of MS2 coat protein lookup, one value per entry
- Test system: MS2 coat protein
- Protocol Text: apparent KD of MS2 coat protein; designed switch direction (-1 OFF switch, 1 ON switch): -1; higher = weaker reporter binding
- Condition Info: input ligand: FMN 200 uM
Please state the figure in nM; there is no need to write the unit.

UAACAUGUCUGAGGAUAUCUGCACGUUUAGUGCAGAGAAGGCAGAACAUGAGGAUCACCCAUGUAGAUCAUUAAUUAAUUAAUU [ENG1/7-B2] (Eterna round: R96, puzzle: Exclusion NG 1)
195

// apparent KD of MS2 coat protein lookup, sequence = AGUAUGCGGCAGGAUAUCCAUCCGCGGUAAGGUGGAGAAGGGCUGACAUGAGGAUCACCCAUGUGCGUCCUGUA [salish99_ex6_r4_028] (Eterna round: R97, puzzle: Exclusion 6) , result: 31.9

Short answer for AUUGUUUGAUACCUCUAAUACAUGAGGAUCACCCAUGUUAUCGAGGAUAUGCAUUAGAGUGGUUAGCAGAAGGCGAAGUAAUUG [JR_ExcNG3_Sub030] (Eterna round: R96, puzzle: Exclusion NG 3) : apparent KD of MS2 coat protein was 18.5

###

- Tested on: MS2 coat protein
- Protocol Text: apparent KD of MS2 coat protein; higher = weaker reporter binding
- Condition Info: Eterna round: R101; input ligand: none
Assign 1 (yes) to entries whose apparent KD of MS2 coat protein meets or exceeds 10 nM; assign 0 (no) to the rest.

Below, 2 sequences whose answers are already recorded.
CGCAUAGACAUGAGGAUCACCCAUGUAUAAAUAGGAUUAACGUAGGAUAUGCAGAAGAUUAAAGUGCAGAAGGACGGCUUUGCG [JR #DistanceFar #NP SSNG3 Sub070] (puzzle (switch architecture): Same State NG 3)
1 (yes)
CCGACGUUUCAGAAGGCACUCGCAUAAUGCGAGUGAGGAUAUGAGGAUCACCCAUAUCAUCGUCGGAGUCACCGAAACGGUGAC [#SharedSequence - IEx NG 3-2] (puzzle (switch architecture): Inverted Exclusion NG 1)
0 (no)

Request: In plain terms: is recorded apparent KD of MS2 coat protein at least 10 nM for UAUUAUAUGGAGAAGGACAUGAGGAUCACCCAUGUCGCCGGGCCCGGGAAACCGGGCCCGGCCAUGUAGGAUAUCCAUAUGGUA [#This is a good prank 6] (puzzle (switch architecture): Inverted Exclusion NG 2) ?
Response: 0 (no)

Request: Does the sequence ACACAUGAGGAUCACCCAUGUAGCCGGCGUCUGCGCCAGCCACAGGAUAUACGGCAACACAAGCCGUAGAAGGGUGAUAAACAC [Lalearledi] (puzzle (switch architecture): Same State NG 3) have recorded apparent KD of MS2 coat protein that is 10 nM or more?
Response: 1 (yes)

Request: Could you tell me if the measured apparent KD of MS2 coat protein of GGCAGCACUUAGAAGGGAGUGCGAUAAUCGCACUCAGGAUAUGAGGAUCACCCAUAUCAAGCUGCCACUGAGGCAAAGCCUCAG [#SharedSequence - IEx NG 4-1] (puzzle (switch architecture): Inverted Exclusion NG 1) reaches 10 nM or more?
Response: 1 (yes)

Request: Textbook exercise: given the entry CCUGCACCUCAAGGAUAUCCAGUCGUUUCGACUGGAGAAGGUGAGGAUCACCCAUCUAGCCUGACGUUUGUCAGGCAUGCAGGU [#AddUracilToBrourdLoops 5 - Jieux - Exclusion NG1] (puzzle (switch architecture): Exclusion NG 1) , state whether its apparent KD of MS2 coat protein is greater than or equal to 10 nM.
Response: 1 (yes)

Request: Reported apparent KD of MS2 coat protein at or above 10 nM? AAAGAUUUUUAAGGAUAUGACUCCGAAACGGAGUCAGAAGGUGAGGAUCACCCAUCUAGCUCAGGGUCGAAAGACCCUGAGCAA [#SharedSequence - ExNG1-15] (puzzle (switch architecture): Exclusion NG 1)
Response: 1 (yes)
